Data provenance is patent US9980943B2.

- System: α7 integrin (LacZ reporter in α7+/LacZ myotubes)
- experimentNotes: Myotube α7 integrin FDG assay (Burkin assay in myotubes, 96-well)
- Assay type: cell-based, mouse
- conditionParameters: myotubes, 10 uM
quantity: Burkin Assay in Myotubes, α7 integrin LacZ reporter signal relative to DMSO

1. CC1CCN(C(CNS(=O)(=O)c2ccccc2)c2ccccc2)CC1 (stereo not drawn) [MLS002171615-01] = 0.9947
2. CC(C(=O)Nc1ccc(C#N)cc1)N(C)CC(=O)Nc1cccc(F)c1 (stereo not drawn) [MLS001033255-01] = 1.246
3. CCCS(=O)(=O)c1nc(S(=O)(=O)c2ccc(C)cc2)c(N2CCCC2)s1 [MLS000113985-01] = 0.9925
4. Cc1nnc(-c2ccc(N3CCOCC3)c([N+](=O)[O-])c2)o1 [MLS001359861-01] = 0.876
5. COC(=O)c1cc(S(=O)(=O)NCC2CCN(Cc3ccc(Cl)cc3)CC2)cn1C [MLS001095033-01] = 0.9298
6. N#Cc1nc(COc2ccccc2)oc1N1CCCC1 [MLS000036988-01] = 0.8223
7. c1ccc(-c2cn3c4c(sc3n2)CCCC4)cc1 [MLS002636056-01] = 1.027
8. Cc1ccc(NCc2nnc(SCC(=O)Nc3nnc(C)s3)n2C)cc1 [MLS000688437-01] = 1.102
9. O=C(Nc1ccccc1F)c1ccc([N+](=O)[O-])s1 [MLS000703499-01] = 0.8518

###

- System: β-galactosidase in CMV-LacZ C2C12 myoblasts
- experimentNotes: CMV-LacZ secondary screen in C2C12 myoblasts (β-Gal stabilizing assay)
- Type: cell-based, mouse
- conditionParameters: 5 uM; CMV-LacZ C2C12 myoblasts
// values below are reported CMV-LACZ in Myoblasts (β-galactosidase activity relative to DMSO)
quantity: CMV-LACZ in Myoblasts (β-galactosidase activity relative to DMSO)

1) O=C(CNC(=O)c1cccc(F)c1)N/N=C/c1cc(Br)ccc1OCc1ccccc1 = 1.1587
2) Cc1ccc(Cn2nnc3c(=O)[nH]c(C4CCCN(C(=O)c5ccco5)C4)nc32)cc1 (stereo not shown) = 1.0711
3) O=C(NCc1ccccc1)c1csc(-c2cccnc2)n1 = 0.7918
4) N#C/C(=C/c1ccc(N2CCOCC2)o1)C(=O)Nc1ccccc1 = 0.8689

###

- System: β-galactosidase in CMV-LacZ C2C12 myoblasts
- experimentNotes: CMV-LacZ secondary screen in C2C12 myoblasts (β-Gal stabilizing assay)
- Format: cell-based, mouse
- conditionParameters: 0.5 uM; SU9516 analogs, C2C12 CMV-LacZ, N=2
- Text: In order to determine compounds that acted to stabilize β-gal in myogenic cells, a CMV-LacZ C2C12 cell line was used in a secondary screen. The EGFP gene from the pEGFP (Clontech) vector was replaced by LACZ PCR product with digests of the vector/PCR product performed using EcoRI (NEB) and NotI (NEB) and ligated using T4 DNA Ligase (NEB) following standard procedures to produce the CMV-LACZ vector. […]
quantity: CMV-LACZ in Myoblasts, value relative to DMSO

1) Cc1[nH]c(/C=C2\C(=O)Nc3ccc(S(=O)(=O)Cc4c(Cl)cccc4Cl)cc32)c(C)c1C(=O)C1CCCN1CN1CCCC1 (stereo not shown) = 1.1021
2) Cc1cc(C)c(/C=C2\C(=O)Nc3ccccc32)[nH]1 [NCGC00094381-04] = 1.0763
3) CCN(CC)CCNC(=O)c1c(C)[nH]c(/C=C2\C(=O)Nc3ccc(F)cc32)c1C [NCGC00164631-04] = 0.8225
4) O=C1Nc2ccccc2/C1=C\c1cccn1-c1ccc(OC(F)(F)F)cc1 = 1.0877
